Molecular target: human P2X4 (Homo sapiens)
Sequence (Q99571 whole entry): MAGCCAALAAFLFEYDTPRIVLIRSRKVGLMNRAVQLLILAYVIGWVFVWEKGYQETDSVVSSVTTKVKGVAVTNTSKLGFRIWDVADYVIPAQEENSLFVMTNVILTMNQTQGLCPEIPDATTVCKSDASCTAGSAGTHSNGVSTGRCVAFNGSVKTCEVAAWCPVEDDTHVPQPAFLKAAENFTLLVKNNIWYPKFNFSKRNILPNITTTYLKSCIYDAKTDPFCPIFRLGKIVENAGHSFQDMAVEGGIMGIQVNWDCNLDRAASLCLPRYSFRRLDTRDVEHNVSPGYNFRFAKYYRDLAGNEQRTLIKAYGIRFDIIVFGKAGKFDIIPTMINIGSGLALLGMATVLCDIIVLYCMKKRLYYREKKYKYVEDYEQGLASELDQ
Experiment: Human P2X4 HEK Cell FLIPR Assay
Type: cell-based
Details: HEK293, HEK293 cells, agonist Bz-ATP at EC80; percentage of maximal inhibition; read-out: Human P2X4 HEK Cells (FLIPR Assay) avg Efficacy [%]
Assign TRUE whenever Emax does not fall below 80%; assign FALSE whenever it does.

Example entries begin here.
{"columns": ["RECORD_SMILES", "ASSIGNED_LABEL"],
 "data": [
  ["NS(=O)(=O)c1cc(NC(=O)Cc2cccc(F)c2)ccc1-c1cncc(C(F)(F)F)c1", "FALSE"],
  ["NS(=O)(=O)c1cc(NC(=O)Cc2ccccc2C(F)F)ccc1-n1cc(C(F)(F)F)cn1", "FALSE"],
  ["CC(C)n1cc(-c2ccc(NC(=O)Cc3ccccc3F)cc2S(N)(=O)=O)cn1", "TRUE"],
  ["COc1cccc(Cl)c1CC(=O)Nc1ccc(-n2cc(Cl)cn2)c(S(N)(=O)=O)c1", "TRUE"],
  ["NS(=O)(=O)c1cc(NC(=O)Cc2ccccc2Br)ccc1-n1cc(Cl)cn1", "TRUE"]
]}

Read the next record carefully.
Check if Emax >= 80% (inclusive). Item: `N#Cc1cnn(-c2ccc(NC(=O)Cc3cc(F)cc(F)c3)cc2S(N)(=O)=O)c1` FALSE
